The entries below come with measured GI50 values attached.
Test system: T47D
Assay: NCI tumour cell line growth inhibition, 48 h
Activity calls are given as the source filed them. No stated cut-off is given here; in the data, active = GI50 up to about 1.1 µM and inactive = higher.

Record request: GI50 value, item CC1(C=O)CC(CCc2ccccc2)NC1Cc1ccc(O)cc1 (stereo unspecified)
15.8 µM (inactive)

----------
Test system: UACC-257
Assay: NCI tumour cell line growth inhibition, 48 h
Active and inactive are the calls of the source. Rule as the data show it: active = GI50 up to about 1.1 µM and inactive = higher. Square brackets hold non-standard residues; d marks the D form. Peptide text beside a SMILES is read from it. * marks the point of attachment. ξ: configuration not given here. ξD = NC(CC(=O)O)C(=O)O; Ac3c = NC1(C(=O)O)CC1; Boc = CC(C)(C)OC(=O)*; OtBu = CC(C)(C)O*
Return exactly one item of active, inactive

Previously resolved entries follow.
Please state the recorded outcome for this compound: O=C(/C=C/c1ccc(O)c(O)c1)OCCCOC(=O)/C=C/c1ccc(O)c(O)c1
inactive

Also check Cc1ccc2nc(NC(=O)/C(=N\NC(=S)NN)C3C(=O)NC(=S)NC3=O)sc2c1
inactive

Also check COC(=O)C1(NC(=O)C(CC(=O)OC(C)(C)C)NC(=O)OC(C)(C)C)CC1 (centres undefined) (Boc-[ξD](OtBu)-[Ac3c]-OMe)
inactive

Also check CCOC(=O)c1nc2c(nc1C(=O)OCC)C(=O)c1ccccc1C2=O
active

Also check COc1cc(C(C)(C)C)c(OC(=O)/C=C/C(=O)O/C=C/[N+](=O)[O-])c(C(C)(C)C)c1
inactive

Also check NC1=NCN(C2OC(CO)C(O)C2O)C(=O)N1 (centres undefined)
inactive

Also check COc1ccc2c(c1OCC(=O)O)C(=O)C(CCC(=O)O)CC2 (centres undefined)
inactive

Also check COC(=O)[C@@]1(C)/C(=N/NS(=O)(=O)c2ccc(C)cc2)CCC[C@@H]1C
inactive

Okay, now this compound:
Please state the recorded outcome for this compound: O=C1C=CC(=O)C2=C1[C@@H](O)C1CC=CC3C(=O)O[C@@H]2C31 (some centres undefined)
inactive
